- Tested on: epithelial breast carcinoma cell line (MDAMB-435)
- assayExplanation: Antiproliferative activity (growth inhibition, MTT), epithelial breast carcinoma cell line MDAMB-435
- Type: cell-based
- testParameters: Homo sapiens, MDA-MB-435, 120 h, 5 days post drug addition, 0.1% DMSO, read-out: IC50 (growth inhibition of MDAMB-435 cells)
observable: IC50 (nM)

{"compound": "Cn1cc(C2=C(c3cn(C)c4cc(-c5ncc[nH]5)ccc34)C(=O)NC2=O)c2ccccc21 [Example 2e]", "IC50 [nM]": 80}
{"compound": "Cn1cc(C2=C(c3cn(C)c4cc(-n5ccnc5)ccc34)C(=O)NC2=O)c2ccccc21 [Example 7]", "IC50 [nM]": 60}
{"compound": "Cn1cc(C2=C(c3cn(C)c4cc(N5CCOCC5)ccc34)C(=O)NC2=O)c2ccc(Cl)cc21 [Example 14c]", "IC50 [nM]": 2}
{"compound": "Cn1cc(C2=C(c3c[nH]c4cc(N5CCOCC5)ccc34)C(=O)NC2=O)c2ccc(F)cc21 [Example 12n]", "IC50 [nM]": 12}
{"compound": "COCc1ccc2c(C3=C(c4cn(C)c5cc(N6CCOCC6)ccc45)C(=O)NC3=O)cn(C)c2c1 [Example 16]", "IC50 [nM]": 1180}

(1) Cn1cc(C2=C(c3cn(C)c4cc(N5CCCC5)ccc34)C(=O)NC2=O)c2ccc(Cl)cc21 [Example 14i]
(2) Cn1nccc1-c1ccc2c(C3=C(c4cn(C)c5cc(Br)ccc45)C(=O)NC3=O)cn(C)c2c1 [Example 2l]
(3) Cn1cc(C2=C(c3c[nH]c4ccccc34)C(=O)NC2=O)c2ccc(-c3ccco3)cc21 [Example 2i]
input: Order by IC50, ascending. List each label, following the requested order.
output: 1, 3, 2

---

- Tested on: epithelial breast carcinoma cell line (MDAMB-435)
- assayExplanation: Antiproliferative activity (growth inhibition, MTT), epithelial breast carcinoma cell line MDAMB-435
- Type: cell-based
- testParameters: Homo sapiens, MDA-MB-435, 120 h, 5 days post drug addition, 0.1% DMSO, read-out: IC50 (growth inhibition of MDAMB-435 cells)
pIC50: −log10 of the molar value.
observable: pIC50

(1) Cn1cc(C2=C(c3cn(C)c4cc([N+](=O)[O-])ccc34)C(=O)NC2=O)c2ccc(-c3cncnc3)cc21
(2) Cn1cc(C2=C(c3cn(C)c4cc([N+](=O)[O-])ccc34)C(=O)NC2=O)c2ccc(-n3ccnc3)cc21
(3) Cn1cc(C2=C(c3cn(C)c4cc([N+](=O)[O-])ccc34)C(=O)NC2=O)c2ccc(N3CCCC3)cc21 [Example 12d]
input: From the records above, write out the order of decreasing pIC50. Reply with the item labels sorted in the order that was asked for.
output: 3, 2, 1
(3: 8.70, 2: 7.52, 1: 7.30)

---

- Tested on: epithelial breast carcinoma cell line (MDAMB-435)
- assayExplanation: Antiproliferative activity (growth inhibition, MTT), epithelial breast carcinoma cell line MDAMB-435
- Format: cell-based
- testParameters: Homo sapiens, MDA-MB-435, 120 h, 5 days post drug addition, 0.1% DMSO, read-out: IC50 (growth inhibition of MDAMB-435 cells)
observable: IC50 (µM)

// solved cases for IC50 follow
{"compound": "Cn1cc(C2=C(c3cn(C)c4cc(N5CCOCC5)ccc34)C(=O)NC2=O)c2ccc(Br)cc21 [Example 14d]", "measurementUnits": "µM", "numericValue": 0.003}
{"compound": "Cn1ccnc1-c1ccc2c(C3=C(c4cn(C)c5cc([N+](=O)[O-])ccc45)C(=O)NC3=O)cn(C)c2c1", "measurementUnits": "µM", "numericValue": 0.03}

(I) Cn1cc(C2=C(c3cn(C)c4cc(-n5ccnc5)ccc34)C(=O)NC2=O)c2ccc(Br)cc21 [Example 10a]
(II) Cn1cc(C2=C(c3cn(C)c4cc([N+](=O)[O-])ccc34)C(=O)NC2=O)c2ccc(-c3ccco3)cc21
input: Consider I and II . Which of these has its IC50 at a higher number? Response format: the label of the selected entry.
output: I

---

- Test system: epithelial breast carcinoma cell line (MDAMB-435)
- assayExplanation: Antiproliferative activity (growth inhibition, MTT), epithelial breast carcinoma cell line MDAMB-435
- Type: cell-based
- testParameters: Homo sapiens, MDA-MB-435, 120 h, 5 days post drug addition, 0.1% DMSO, read-out: IC50 (growth inhibition of MDAMB-435 cells)
pIC50: −log10 of the molar value. Structures can show the parent of a compound that is named as a salt.
observable: pIC50

Here are 4 compounds together with their reported answers.
{"compound": "Cn1cc(C2=C(c3c[nH]c4cc(N5CCCC5)ccc34)C(=O)NC2=O)c2ccc(F)cc21 [Example 12e]", "pIC50": 8.52}
{"compound": "Cn1cc(C2=C(c3cn(C)c4cc(-c5ccco5)ccc34)C(=O)NC2=O)c2ccccc21 [Example 2g]", "pIC50": 7.70}
{"compound": "Cn1cc(C2=C(c3cn(C)c4cc(N5CCCCC5)ccc34)C(=O)NC2=O)c2ccccc21 [Example 12l]", "pIC50": 6.64}
{"compound": "Cn1cc(C2=C(c3cn(C)c4cc([N+](=O)[O-])ccc34)C(=O)NC2=O)c2ccc(-c3cnc[nH]3)cc21 [Example 2f, hydrochloride]", "pIC50": 7.70}

(P) Cn1cc(C2=C(c3cn(C)c4cc(-n5cccn5)ccc34)C(=O)NC2=O)c2ccccc21 [Example 8d]
(Q) Cn1cncc1-c1ccc2c(C3=C(c4cn(C)c5cc([N+](=O)[O-])ccc45)C(=O)NC3=O)cn(C)c2c1 [Example 1]
input: # argmax over pIC50 for candidates P and Q Indicate your choice by writing its label.
output: Q
(Q: 8.30, P: 7.52)

---

- Test system: epithelial breast carcinoma cell line (MDAMB-435)
- assayExplanation: Antiproliferative activity (growth inhibition, MTT), epithelial breast carcinoma cell line MDAMB-435
- Assay type: cell-based
- testParameters: Homo sapiens, MDA-MB-435, 120 h, 5 days post drug addition, 0.1% DMSO, read-out: IC50 (growth inhibition of MDAMB-435 cells)
- Procedure: The epithelial breast carcinoma cell line (MDAMB-435) was purchased from ATCC (American Type Cell Culture Collection) and was grown in culture medium as recommended by ATCC. […] The day after the cells were plated, the compounds to be analyzed were dissolved in 100% DMSO (dimethyl sulfoxide) to yield at 10 mM stock solution. […] 5 days post drug addition, the plate was analyzed as described below. […]
pIC50: −log10 of the molar value.
observable: pIC50

Would you please look over these solved cases?
{"molecule": "Cn1cc(C2=C(c3cn(C)c4cc(-c5nccs5)ccc34)C(=O)NC2=O)c2ccccc21", "pIC50": 7.62}
{"molecule": "Cn1cc(C2=C(c3cn(C)c4cc(-c5ccns5)ccc34)C(=O)NC2=O)c2ccccc21", "pIC50": 7.40}
{"molecule": "Cn1cc(C2=C(c3cn(C)c4cc(C(F)(F)F)ccc34)C(=O)NC2=O)c2ccc(N3CCCC3)cc21 [Example 14h]", "pIC50": 7.10}
{"molecule": "Cn1cc(C2=C(c3cn(C)c4cc([N+](=O)[O-])ccc34)C(=O)NC2=O)c2ccc(-n3cccn3)cc21", "pIC50": 7.70}

(a) Cn1cc(C2=C(c3cn(C)c4cc(N5CCOCC5)ccc34)C(=O)NC2=O)c2ccccc21
(b) COc1ccc2c(C3=C(c4cn(C)c5cc(-c6cncn6C)ccc45)C(=O)NC3=O)cn(C)c2c1
input: Smaller pIC50 value, a vs b ? Identify your pick by its label.
output: b

---

- System: epithelial breast carcinoma cell line (MDAMB-435)
- assayExplanation: Antiproliferative activity (growth inhibition, MTT), epithelial breast carcinoma cell line MDAMB-435
- Format: cell-based
- testParameters: Homo sapiens, MDA-MB-435, 120 h, 5 days post drug addition, 0.1% DMSO, read-out: IC50 (growth inhibition of MDAMB-435 cells)
observable: IC50 (nM)

(1) Cn1cc(C2=C(c3cn(C)c4cc(-n5ccnc5)ccc34)C(=O)NC2=O)c2ccc(C#N)cc21 [Example 10b]
(2) Cn1cc(C2=C(c3cn(C)c4cc(N5CCCC5)ccc34)C(=O)NC2=O)c2ccc(Br)cc21 [Example 14f]
(3) Cn1cc(C2=C(c3c[nH]c4ccccc34)C(=O)NC2=O)c2ccc(N3CCCC3)cc21 [Example 12i]
(4) Cn1cncc1-c1ccc2c(C3=C(c4cn(C)c5ccccc45)C(=O)NC3=O)cn(C)c2c1
input: Put the above molecules in order of rising IC50, beginning with the smallest. Please, when replying, give the labels in the order that was requested.
output: 2, 1, 4, 3
(2: 5 nM, 1: 30 nM, 4: 50 nM, 3: 80 nM)

(P) Cn1cc(C2=C(c3c[nH]c4cc(N5CCOCC5)ccc34)C(=O)NC2=O)c2ccccc21 [Example 12o]
(Q) CN1CCN(c2ccc3c(C4=C(c5cn(C)c6ccccc56)C(=O)NC4=O)cn(C)c3c2)CC1 [Example 12k]
(R) Cn1cc(C2=C(c3cn(C)c4cc(N5CCOCC5)ccc34)C(=O)NC2=O)c2ccc(C#N)cc21
input: With regard to IC50, arrange the entries in ascending order, please. Output the labels ranked as instructed.
output: R, P, Q
(R: 4 nM, P: 37 nM, Q: 3410 nM)

(I) COc1ccc2c(C3=C(c4cn(C)c5cc(N6CCCC6)ccc45)C(=O)NC3=O)cn(C)c2c1 [Example 14g]
(II) COc1ccc2c(C3=C(c4cn(C)c5cc(-n6ccnc6)ccc45)C(=O)NC3=O)cn(C)c2c1
input: Compare I and II and name the one whose reported IC50 is smaller. Please reply using the label of the selected record.
output: I
